So I've got a bunch of compounds here, and I need their viability, T/C values.
System: 996289-038-R-J1-PDC spheroid viability
Test: Anticancer human tumor 996289-038-R-J1-PDC patient-derived colon adenocarcinoma cell line growth inhibition [PI3K]
Conditions: second compound 3.16 µM; first compound 0.01 µM; stronger effect = lower value; spheroids with HUVEC and MSC
Provide only the numeric value, understood in %.

**Query** Provide measured viability, T/C on 996289-038-R-J1-PDC spheroid viability for Cn1ncnc1[C@H]1c2n[nH]c(=O)c3cc(F)cc(c23)N[C@@H]1c1ccc(F)cc1 + Cc1nc(NC(=O)N2CCCC2C(N)=O)sc1-c1ccnc(C(C)(C)C(F)(F)F)c1 please.
**Result** 61.1

**Query** Provide measured viability, T/C on 996289-038-R-J1-PDC spheroid viability for CCN1CCN(Cc2ccc(Nc3ncc(F)c(-c4cc(F)c5nc(C)n(C(C)C)c5c4)n3)nc2)CC1 + Cc1nc(NC(=O)N2CCCC2C(N)=O)sc1-c1ccnc(C(C)(C)C(F)(F)F)c1 please.
**Result** 56.2

**Query** Provide measured viability, T/C on 996289-038-R-J1-PDC spheroid viability for CCN1CCN(Cc2ccc(Nc3ncc(F)c(-c4cc(F)c5nc(C)n(C(C)C)c5c4)n3)nc2)CC1 + CC(Nc1ncnc2nc[nH]c12)c1cc2cccc(Cl)c2c(=O)n1-c1ccccc1 please.
**Result** 105

**Query** Provide measured viability, T/C on 996289-038-R-J1-PDC spheroid viability for CC(=O)c1c(C)c2cnc(Nc3ccc(N4CCNCC4)cn3)nc2n(C2CCCC2)c1=O + CC(Nc1ncnc2nc[nH]c12)c1cc2cccc(Cl)c2c(=O)n1-c1ccccc1 please.
**Result** 95.9

**Query** Provide measured viability, T/C on 996289-038-R-J1-PDC spheroid viability for Cn1ncnc1[C@H]1c2n[nH]c(=O)c3cc(F)cc(c23)N[C@@H]1c1ccc(F)cc1 + CC(Nc1ncnc2nc[nH]c12)c1cc2cccc(Cl)c2c(=O)n1-c1ccccc1 please.
**Result** 96.3

**Query** Provide measured viability, T/C on 996289-038-R-J1-PDC spheroid viability for CC(=O)c1c(C)c2cnc(Nc3ccc(N4CCNCC4)cn3)nc2n(C2CCCC2)c1=O + Cc1nc(NC(=O)N2CCCC2C(N)=O)sc1-c1ccnc(C(C)(C)C(F)(F)F)c1 please.
**Result** 61.7

**Query** Provide measured viability, T/C on 996289-038-R-J1-PDC spheroid viability for CC(C)n1nc(-c2ccc3oc(N)nc3c2)c2c(N)ncnc21 + Cc1nc(NC(=O)N2CCCC2C(N)=O)sc1-c1ccnc(C(C)(C)C(F)(F)F)c1 please.
**Result** 40.6

**Query** Provide measured viability, T/C on 996289-038-R-J1-PDC spheroid viability for CC(C)n1nc(-c2ccc3oc(N)nc3c2)c2c(N)ncnc21 + CC(Nc1ncnc2nc[nH]c12)c1cc2cccc(Cl)c2c(=O)n1-c1ccccc1 please.
**Result** 89.5

###

So I've got a bunch of compounds here, and I need their IC50 values.
System: 996289-038-R-J1-PDC spheroid viability
Assay: Anticancer human tumor 996289-038-R-J1-PDC cell line growth inhibition [PI3K];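 also: spheroids exposed to compounds for seven days before viability read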
Details: curve of first compound; second compound 1 µM; spheroids with HUVEC and MSC
Provide only the numeric value, understood in nM.

**Query** Answer with the recorded IC50 for the compound listed here: CCCS(=O)(=O)Nc1ccc(F)c(C(=O)c2c[nH]c3ncc(-c4ccc(Cl)cc4)cc23)c1F + CC(Nc1ncnc2nc[nH]c12)c1cc2cccc(Cl)c2c(=O)n1-c1ccccc1
**Result** 6630

**Query** Answer with the recorded IC50 for the compound listed here: CC(C)n1nc(-c2ccc3oc(N)nc3c2)c2c(N)ncnc21 + CC(Nc1ccc2c(c1)OCCn1cc(N3C(=O)OCC3C(F)F)nc1-2)C(N)=O
**Result** 5.5

**Query** Answer with the recorded IC50 for the compound listed here: CC(=O)c1c(C)c2cnc(Nc3ccc(N4CCNCC4)cn3)nc2n(C2CCCC2)c1=O + CC(Nc1ccc2c(c1)OCCn1cc(N3C(=O)OCC3C(F)F)nc1-2)C(N)=O
**Result** 79.6
